# Tested system: Human α2δ-1 subunit of Cav2.2 calcium channel (Homo sapiens, UniProt P54289)
# Sequence (P54289 25-1103): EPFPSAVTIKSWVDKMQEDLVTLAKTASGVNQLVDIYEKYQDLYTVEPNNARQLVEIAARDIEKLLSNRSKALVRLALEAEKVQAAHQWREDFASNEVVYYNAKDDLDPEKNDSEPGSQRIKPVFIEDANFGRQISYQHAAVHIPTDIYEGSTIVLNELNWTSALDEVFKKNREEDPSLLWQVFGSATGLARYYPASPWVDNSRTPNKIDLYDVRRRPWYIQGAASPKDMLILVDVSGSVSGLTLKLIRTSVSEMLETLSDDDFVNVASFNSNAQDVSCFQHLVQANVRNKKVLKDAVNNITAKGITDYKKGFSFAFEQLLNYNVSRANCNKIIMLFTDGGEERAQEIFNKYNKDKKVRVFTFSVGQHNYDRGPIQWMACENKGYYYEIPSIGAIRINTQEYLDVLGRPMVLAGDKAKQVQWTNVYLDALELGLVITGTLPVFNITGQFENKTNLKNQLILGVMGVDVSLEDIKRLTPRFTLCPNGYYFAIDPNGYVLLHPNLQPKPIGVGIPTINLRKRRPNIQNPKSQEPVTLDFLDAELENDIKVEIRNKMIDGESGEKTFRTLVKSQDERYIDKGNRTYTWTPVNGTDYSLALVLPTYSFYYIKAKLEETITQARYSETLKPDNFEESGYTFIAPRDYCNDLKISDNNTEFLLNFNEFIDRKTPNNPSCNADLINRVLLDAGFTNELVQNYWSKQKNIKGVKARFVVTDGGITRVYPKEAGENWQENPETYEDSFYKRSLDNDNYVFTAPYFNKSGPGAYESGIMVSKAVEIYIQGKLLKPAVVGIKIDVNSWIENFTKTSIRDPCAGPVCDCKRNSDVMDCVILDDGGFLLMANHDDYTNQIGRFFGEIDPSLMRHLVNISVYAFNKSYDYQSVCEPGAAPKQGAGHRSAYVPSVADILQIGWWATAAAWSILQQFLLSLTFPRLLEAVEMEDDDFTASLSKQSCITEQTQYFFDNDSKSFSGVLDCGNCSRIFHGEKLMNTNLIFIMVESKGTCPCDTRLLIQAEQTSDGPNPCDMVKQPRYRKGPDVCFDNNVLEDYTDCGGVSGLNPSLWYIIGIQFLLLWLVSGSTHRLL
# Run description: Human α2δ-1 subunit of Cav2.2 calcium channel assay ([3H]-Gabapentin)
# Type: binding
# Description: Human α2δ-1 Subunit of Cav2.2 Calcium Channel Assay Human α2δ-1 enriched membranes (2.5 μg) were incubated with 15 nM of radiolabeled [3H]-Gabapentin in assay buffer containing Hepes-KOH 10 mM, pH 7.4. NSB (non specific binding) was measured by adding 10 μM pregabalin. […] Filter plates were dried at 60° C. for 1 hour and 30 μl of scintillation cocktail were added to each well before radioactivity reading. […] NSB (non specific binding) was measured by adding 10 μM pregabalin. […]
pKi: −log10 of the molar value.
Value type: pKi

{"columns": ["Molecule", "Value type", "Result"],
 "data": [
  ["CCNCC[C@H](Oc1ccccc1-n1nc2c(N(C)C)nnc(C)c2c1C)c1ccccc1", "pKi", "5.30 to 6.30"],
  ["CNCCC(Oc1ccccc1-n1nc2c(N(C)C)nnc(C)c2c1C)c1ccc(F)cc1 (centres unmarked)", "pKi", "> 6.30"],
  ["CCCNCCC(Oc1ccccc1-n1nc2c(N(C)C)nnc(C)c2c1C)c1ccccc1 (centres unmarked)", "pKi", "5.30 to 6.30"],
  ["Cc1nnc(N(C)C)c2nn(-c3ccccc3OC(CCNCCF)c3ccccc3)c(C)c12 (centres unmarked)", "pKi", "5.30 to 6.30"]
]}

Measured pKi, CCOc1ccc(-n2nc3c(N(C)C)nnc(C)c3c2C)c(OC(CCNC)c2ccccc2)c1 (centres unmarked) : > 6.30

Measured pKi, Cc1nnc(N(C)C)c2nn(-c3ccccc3OC(CCNCC3CC3)c3ccccc3)c(C)c12 (centres unmarked) : 5.30 to 6.30

Measured pKi, CNCC[C@@H](Oc1ccccc1-n1nc2c(N(C)C)nnc(C)c2c1C)c1ccccc1 : 5.30 to 6.30

Measured pKi, CNCCC(Oc1ccccc1-n1c(C)c2c(C)nnc(C)c2c1C)c1ccccc1 (centres unmarked) : 5.30 to 6.30

---

Recorded pKi, one value per entry.
# Tested system: Human α2δ-1 subunit of Cav2.2 calcium channel (Homo sapiens)
# Run description: Human α2δ-1 subunit of Cav2.2 calcium channel assay ([3H]-Gabapentin)
# Format: binding
# Test settings: human α2δ-1 enriched membranes, 15 nM [3H]-Gabapentin; read-out: Binding α2δ-1 (Ki)
pKi: −log10 of the molar value.

{"columns": ["Molecule", "Value type", "Result"],
 "data": [
  ["CNCC(Oc1ccccc1-n1nc2c(N(C)C)nnc(C)c2c1C)c1ccccc1 (stereo not shown)", "pKi", "5.30 to 6.30"],
  ["CNCCC(Oc1cc(NC(C)=O)ccc1-n1nc2c(N(C)C)nnc(C)c2c1C)c1ccccc1 (stereo not shown)", "pKi", "5.30 to 6.30"],
  ["CNCCC(Oc1cc(C(N)=O)ccc1-n1nc2c(N(C)C)nnc(C)c2c1C)c1ccccc1 (stereo not shown)", "pKi", "< 5.30"]
]}

Measured pKi, CNCCC(Oc1cc(C(=O)N(C)C)ccc1-n1nc2c(N(C)C)nnc(C)c2c1C)c1ccccc1 (stereo not shown) : 5.30 to 6.30

---

# Tested system: human μ-opioid receptor (Homo sapiens, UniProt P35372)
# Construct: expressed in transfected cells; host or cells: CHO-K1
# Sequence (P35372 whole entry): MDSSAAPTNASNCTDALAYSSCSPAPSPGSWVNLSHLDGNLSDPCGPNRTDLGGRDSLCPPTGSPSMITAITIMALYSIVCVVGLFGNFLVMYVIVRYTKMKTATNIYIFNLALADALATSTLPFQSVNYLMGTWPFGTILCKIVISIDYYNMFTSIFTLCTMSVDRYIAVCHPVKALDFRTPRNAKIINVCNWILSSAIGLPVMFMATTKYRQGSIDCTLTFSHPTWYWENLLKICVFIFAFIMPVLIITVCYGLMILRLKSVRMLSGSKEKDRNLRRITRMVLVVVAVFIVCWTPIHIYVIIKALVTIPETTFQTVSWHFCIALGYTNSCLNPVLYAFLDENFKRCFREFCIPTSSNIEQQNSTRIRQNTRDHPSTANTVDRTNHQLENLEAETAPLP
# Run description: Human μ-opioid receptor radioligand assay ([3H]-DAMGO)
# Type: binding
# Description: Human μ-Opioid Receptor Radioligand Assay To investigate binding properties of test compounds to human μ-opioid receptor, transfected CHO-K1 cell membranes and [^3H]-DAMGO (Perkin Elmer, ES-542-C), as the radioligand, were used. […] NBS (non-specific binding) was measured by adding 10 μM Naloxone. The binding of the test compound was measured at five different concentrations. […]
pKi: −log10 of the molar value.
Value type: pKi

Examples with answers:
{"columns": ["Compound", "Result"],
 "data": [
  ["Cc1nnc(N(C)C)c2nn(-c3ccccc3OCC3CCN(CCc4ccccc4)CC3)c(C)c12 [Example 58]", "> 7.00"],
  ["CNCC[C@@H](Oc1ccccc1-n1nc2c(N(C)C)nnc(C)c2c1C)c1ccccc1 [Example 100]", "< 6.30"],
  ["CCOc1ccc(-n2nc3c(N(C)C)nnc(C)c3c2C)c(OC(CCNC)c2ccccc2)c1 (centres unmarked) [Example 87]", "< 6.30"],
  ["CNCCC(Oc1ccccc1-n1nc2c(N(C)C)nnc(C)c2c1C)c1cccs1 (centres unmarked) [Example 78]", "6.30 to 7.00"],
  ["Cc1nnc(N(C)C)c2nn(-c3ccccc3OC(CCNCC3CC3)c3ccccc3)c(C)c12 (centres unmarked) [Example 20]", "6.30 to 7.00"],
  ["CCCNCCC(Oc1ccccc1-n1nc2c(N(C)C)nnc(C)c2c1C)c1ccccc1 (centres unmarked) [Example 24]", "6.30 to 7.00"],
  ["CNCC[C@H](Oc1ccccc1-n1nc2c(N(C)C)nnc(C)c2c1C)c1ccccc1 [Example 99]", "6.30 to 7.00"]
]}

Next:
Measured pKi, CCNCC[C@H](Oc1ccccc1-n1nc2c(N(C)C)nnc(C)c2c1C)c1ccccc1 [Example 102] : < 6.30

---

# Tested system: human μ-opioid receptor (Homo sapiens, UniProt P35372)
# Construct: expressed in transfected cells; host or cells: CHO-K1
# Run description: Human μ-opioid receptor radioligand assay ([3H]-DAMGO)
# Format: binding
# Experimental: Human μ-Opioid Receptor Radioligand Assay To investigate binding properties of test compounds to human μ-opioid receptor, transfected CHO-K1 cell membranes and [^3H]-DAMGO (Perkin Elmer, ES-542-C), as the radioligand, were used. […] NBS (non-specific binding) was measured by adding 10 μM Naloxone. The binding of the test compound was measured at five different concentrations. […]
pKi: −log10 of the molar value.
Recorded pKi, one value per entry.

Examples with answers:
{"columns": ["Compound", "pKi"],
 "data": [
  ["CNCCC(Oc1ccccc1-n1nc2c(N(C)C)nnc(C)c2c1C)c1ccc(F)cc1 (centres unmarked) [Example 42]", "< 6.30"],
  ["Cc1nnc(N(C)C)c2nn(-c3ccccc3OC3CCN(CCc4ccccc4)C3)c(C)c12 (centres unmarked) [Example 55]", "6.30 to 7.00"],
  ["CNCC[C@H](Oc1ccccc1-n1nc2c(N(C)C)nnc(C)c2c1C)c1cccc(F)c1 [Example 103]", "< 6.30"]
]}

Measured pKi, CNCCC(Oc1ccccc1-n1nc2c(N(C)C)nnc(C)c2c1C)c1cccc(F)c1 (centres unmarked) [Example 44] : 6.30 to 7.00

Measured pKi, Cc1nnc(N(C)C)c2nn(-c3ccccc3OC(CCNCC(F)F)c3ccccc3)c(C)c12 (centres unmarked) [Example 56] : 6.30 to 7.00

Measured pKi, Cc1nnc(N(C)C)c2nn(-c3ccccc3OC(CCN(C)C)c3ccccc3)c(C)c12 (centres unmarked) [Example 52] : 6.30 to 7.00

Measured pKi, Cc1nnc(N(C)C)c2nn(-c3ccccc3OC(CCNC3CC3)c3ccccc3)c(C)c12 (centres unmarked) [Example 27] : 6.30 to 7.00

Measured pKi, CCNCCC(Oc1ccccc1-n1nc2c(N(C)C)nnc(C)c2c1C)c1cccc(F)c1 (centres unmarked) [Example 47] : 6.30 to 7.00

---

Recorded Ki, one value per entry.
# Tested system: Human α2δ-1 subunit of Cav2.2 calcium channel (Homo sapiens, UniProt P54289)
# Run description: Human α2δ-1 subunit of Cav2.2 calcium channel assay ([3H]-Gabapentin)
# Assay type: binding
# Test settings: human α2δ-1 enriched membranes, 15 nM [3H]-Gabapentin; read-out: Binding α2δ-1 (Ki)

Examples with answers:
{"columns": ["Compound", "Result"],
 "data": [
  ["Cc1nnc(N(C)C)c2nn(-c3ccccc3O[C@H](c3ccccc3)[C@@H]3CNCCO3)c(C)c12", "0.5 to 5 µM"],
  ["Cc1nnc(N(C)C)c2nn(-c3ccccc3OC3CNCc4ccccc43)c(C)c12 (centres unmarked)", "0.5 to 5 µM"],
  ["CNCCC(Oc1ccc(N2CCCC2=O)cc1-n1nc2c(N(C)C)nnc(C)c2c1C)c1ccccc1 (centres unmarked)", "> 5 µM"],
  ["CNCCC(Oc1ccccc1-n1nc2c(NC)nnc(C)c2c1C)c1ccccc1 (centres unmarked)", "0.5 to 5 µM"],
  ["CNCCC(Oc1ccccc1-n1nc2c(N(C)C)nnc(C)c2c1C)c1cc(F)cc(F)c1 (centres unmarked)", "0.5 to 5 µM"]
]}

Reported Ki (Human α2δ-1 subunit of Cav2.2 calcium channel (Homo sapiens, UniProt P54289)) for entry CNCc1cccc(COc2ccccc2-n2nc3c(N(C)C)nnc(C)c3c2C)c1 is 0.5 to 5 µM

---

# Tested system: Human α2δ-1 subunit of Cav2.2 calcium channel (Homo sapiens)
# Run description: Human α2δ-1 subunit of Cav2.2 calcium channel assay ([3H]-Gabapentin)
# Type: binding
# Description: Human α2δ-1 Subunit of Cav2.2 Calcium Channel Assay Human α2δ-1 enriched membranes (2.5 μg) were incubated with 15 nM of radiolabeled [3H]-Gabapentin in assay buffer containing Hepes-KOH 10 mM, pH 7.4. NSB (non specific binding) was measured by adding 10 μM pregabalin. […] Filter plates were dried at 60° C. for 1 hour and 30 μl of scintillation cocktail were added to each well before radioactivity reading. […] NSB (non specific binding) was measured by adding 10 μM pregabalin. […]
pKi: −log10 of the molar value.
Value type: pKi

Examples with answers:
{"columns": ["Compound", "pKi"],
 "data": [
  ["Cc1nnc(N(C)C)c2nn(-c3ccccc3OC(CCNCC(F)F)c3ccccc3)c(C)c12 (stereo not drawn)", "5.30 to 6.30"],
  ["CCNCC[C@@H](Oc1ccccc1-n1nc2c(N(C)C)nnc(C)c2c1C)c1ccccc1", "5.30 to 6.30"],
  ["CNCCC(Oc1ccccc1-n1nc2c(Nc3ccccc3)nnc(C)c2c1C)c1ccccc1 (stereo not drawn)", "< 5.30"]
]}

Next:
Reported pKi (Human α2δ-1 subunit of Cav2.2 calcium channel (Homo sapiens)) for entry Cc1nnc(N(C)C)c2nn(-c3ccccc3OC(CCN(C)C)c3ccccc3)c(C)c12 (stereo not drawn) is 5.30 to 6.30
